assay: TEAD-YAP interaction inhibition, primary screen, TEAD-YAP interaction inhibitor project, luminescence, HEK-TIYL cells (AID 1259422); details: TEAD-Gal4/YAP UAS-luciferase luminescence, at 9.12 µM;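 further: 0% = median of test compound wells and 100% = reference inhibitor wells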
The whole screen tested about 640,000 compounds, of which about 9,300 (1.5%) were called active. No stated cut-off is given here; in the data, active means inhibition above about 32%; inactive means the rest. Shown is part of a subset that was picked to be rich in actives.
// classify into T (active), F (inactive)

Record excerpt, results attached:
>>> discrete_label("COc1cc(Nc2nc(NCc3cccnc3)c3ncn(-c4ccsc4)c3n2)cc(OC)c1OC")
"F"
>>> discrete_label("COc1cc(Nc2nc(Nc3nccc4ccccc34)nc3c2ncn3-c2ccsc2)cc(OC)c1OC")
"F"
>>> discrete_label("Nc1nc(Nc2nccc3ccccc23)nc2c1ncn2-c1ccsc1")
"T"
>>> discrete_label("COc1cc(Nc2nc(NCc3cccnc3)nc3c2ncn3-c2ccsc2)cc(OC)c1OC")
"F"

Shifting focus to the molecule that follows.
How was CCNc1nc(Nc2cc(OC)c(OC)c(OC)c2)c2ncn(-c3ccsc3)c2n1 classified in this test? T

====

assay: TEAD-YAP interaction inhibition, primary screen, TEAD-YAP interaction inhibitor project, luminescence, HEK-TIYL cells (AID 1259422); conditions: TEAD-Gal4/YAP UAS-luciferase luminescence, at 9.12 µM, stronger effect = higher value;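 further: 0% = median of test compound wells and 100% = reference inhibitor wells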
The campaign covered roughly 640,000 compounds. About 9,300 (1.5%) were called active. What follows is part of a selection rich in actives, with near analogues and random picks from the rest.
quantity: inhibition (%)
Use % as the unit, but write only the number.

Here is how some compounds turned out for inhibition.
>>> reported_value("CC1CCc2c(sc(NC(=O)c3ccccc3F)c2C(=O)N2CCOCC2)C1 (stereo not given)")
-2.16
>>> reported_value("O=C1c2ccccc2S(=O)(=O)N1c1ccc(Cl)cc1Cl")
6.48
>>> reported_value("CCOC(=O)N1CCN(C(=O)CC2C(=O)NCCN2Cc2ccccc2C)CC1 (stereo not given)")
4.23
>>> reported_value("Cc1ccccc1C(=O)Nc1ccc(Br)c(Cl)c1")
-77.6
>>> reported_value("c1cc(-c2nc3c(c(N4CCCCC4)n2)CNCC3)ccn1")
-3.63

Request the reported inhibition associated with COC(=O)c1ccccc1NC(=O)C(=O)Nc1ccccc1C(=O)OC -3.84

Which inhibition reading was recorded for the compound Cc1cc(Cl)cc(Cl)c1OCCOCCN(C)CCO ? 3.38

Need inhibition, item Cc1ccccc1C(=O)NCC1(c2cccs2)CC1 -38.7

====

assay: TEAD-YAP interaction inhibition, primary screen, TEAD-YAP interaction inhibitor project, luminescence, HEK-TIYL cells (AID 1259422); conditions: TEAD-Gal4/YAP UAS-luciferase luminescence, at 9.12 µM;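 further: 0% = median of test compound wells and 100% = reference inhibitor wells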
About 9,300 (1.5%) of roughly 640,000 compounds were called active. Rule as the data show it: active = inhibition above about 32%; inactive = the rest. Many of the other results were omitted from the sample, so actives are more common in it than they were.
Use one of these outcomes when replying: active, inactive

>>> discrete_label("Nc1nc(SC(c2ccccc2)c2ccccc2)nc2sc3c(c12)CCCC3")
"inactive"
>>> discrete_label("O=C(Cc1cccc2ccccc12)Nc1ccccc1-c1nc2ccccc2s1")
"inactive"
>>> discrete_label("Cc1nc(NC(=O)c2ccc3c(c2)CCCC3)sc1C")
"active"
>>> discrete_label("COc1ccccc1N1CCN(C(=O)c2ccc(Cl)c([N+](=O)[O-])c2)CC1")
"active"
>>> discrete_label("O=C(Nc1ccc(Cl)c(C(=O)O)c1)c1ncn[nH]1")
"inactive"

Recorded test call requested for CCc1ccc(NC(=O)c2ncn[nH]2)cc1 active

Recorded test call requested for Cc1ccc(OCCSc2nc(N)cc(=O)[nH]2)cc1 inactive

Fill in: this test's call for COc1ccc(C(=O)Nc2nc(C(C)(C)C)cs2)c(OC)c1 is ___ inactive

I would be grateful if you could indicate the recorded call for CCOC(=O)CSc1ccc(C(=O)N2CCN(c3ccccc3OC)CC2)cc1[N+](=O)[O-] . inactive

Assay outcome for Cc1nc(NC(=O)c2cc(Br)ccc2Cl)sc1C : what was it? inactive

Returns: the outcome recorded for CC(=O)c1cc(Cl)cc(Cl)c1O in this assay. inactive

# outcome recorded in this test, key = COc1ccc(C(=O)Nc2nc(C)c(C)s2)c(OC)c1 active

====

inhibition by entry:
assay: TEAD-YAP interaction inhibition, primary screen, TEAD-YAP interaction inhibitor project, luminescence, HEK-TIYL cells (AID 1259422); conditions: TEAD-Gal4/YAP UAS-luciferase luminescence, at 9.12 µM, stronger effect = higher value;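 further: 0% = median of test compound wells and 100% = reference inhibitor wells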
Out of some 640,000 compounds screened, about 9,300 (1.5%) were called active. The sample holds actives, similar compounds and a random draw of the others, so the mix is not that of the screen.
Number only, in %; omit the unit.

Some compounds with recorded inhibition:
>>> reported_value("Cc1ccc(N(CC(=O)O)C2SC(=O)N(c3ccccc3)C2=O)cc1 (stereo not given)")
-28.6
>>> reported_value("CCC(C)c1ccc(OCC(=O)NCc2ccco2)cc1 (stereo not given)")
-13.8
>>> reported_value("Cc1cc(OC2CCN(C(=O)c3ccc4[nH]ncc4c3)CC2)ncc1Cl")
6.71
>>> reported_value("CCOc1cccc2sc(N3CCOCC3)nc12")
-1.73
>>> reported_value("CCc1cc2c(C)cc(=O)oc2cc1OCC(=O)NCc1ccco1")
42.8

Report inhibition for CC(Oc1ccc(Cl)cc1Cl)C(=O)Nc1ccc(C(=O)O)cc1 (stereo not given) please. 11.5

Give its inhibition value. Item: CCOc1cc(C#N)ccc1OCC(=O)Nc1ccc(C)cc1C 15.8

Give the measured inhibition of COc1ccc(-c2c(Nc3cccc(C)c3)c(=O)c2=O)cc1 . 4.83

====

assay: TEAD-YAP interaction inhibition, primary screen, TEAD-YAP interaction inhibitor project, luminescence, HEK-TIYL cells (AID 1259422); settings: TEAD-Gal4/YAP UAS-luciferase luminescence, at 9.12 µM, stronger effect = higher value;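 further: 0% = median of test compound wells and 100% = reference inhibitor wells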
In all, about 640,000 compounds went through this assay and about 9,300 (1.5%) were called active. Shown is part of a subset that was picked to be rich in actives.
quantity: inhibition (%)
Give the quantity in %, number only.

// worked examples, inhibition included
>>> reported_value("C[C@@H]1CN(C(=O)C2CC23CCN(Cc2coc4ccccc4c2=O)CC3)C[C@H](C)O1 (stereo not given in full)")
-6.72
>>> reported_value("O=C(CSCc1cc2cccc3c2n(c1=O)CCC3)NCc1ccncc1")
8.05
>>> reported_value("CN(c1ncnc2c1nc1n2CCCCC1)C1CCCCC1")
-48

Field request: inhibition | item: CCOC(=O)C1=CN(Cc2ccc(F)cc2)C=C(C(=O)OCC)C1c1ccc(Cl)cc1 1.74

Which value of inhibition has been reported for CN(c1ccc(C(=O)Nc2cc(F)cc(F)c2)cc1[N+](=O)[O-])C1CCCCC1 in the records? -5.53

====

test: TEAD-YAP interaction inhibition, primary screen, TEAD-YAP interaction inhibitor project, luminescence, HEK-TIYL cells (AID 1259422); settings: TEAD-Gal4/YAP UAS-luciferase luminescence, at 9.12 µM, stronger effect = higher value;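 further: 0% = median of test compound wells and 100% = reference inhibitor wells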
The whole screen tested about 640,000 compounds, of which about 9,300 (1.5%) were called active. The sample holds actives, similar compounds and a random draw of the others, so the mix is not that of the screen.
# key: entry, value: inhibition
# output: bare number, implied unit %

Here are 5 compounds together with their reported answers.
>>> reported_value("COC(=O)C1CCN(C(=O)c2ccc(Cl)c([N+](=O)[O-])c2)CC1")
1.51
>>> reported_value("COc1ccccc1N1CCN(C(=O)CSCc2ccccc2C)CC1")
-42.5
>>> reported_value("COc1ccccc1N1CCN(C(=O)COc2ccc(Cl)cc2C)CC1")
58.5
>>> reported_value("COc1ccc(N2CCN(C(=O)COc3ccccc3OC)CC2)cc1")
1.61
>>> reported_value("CC1=NN(c2ccccc2)C(=O)C1N=Nc1c(C)n[nH]c1C (stereo unspecified)")
38.6

Please turn your attention to the following entry.
Returns the measured inhibition for the input compound. Input: CC1=NN(c2ccccc2)C(=O)C1/C=C1\SC(=O)NC1=O (stereo unspecified) 13.7

====

assay: TEAD-YAP interaction inhibition, primary screen, TEAD-YAP interaction inhibitor project, luminescence, HEK-TIYL cells (AID 1259422); details: TEAD-Gal4/YAP UAS-luciferase luminescence, at 9.12 µM;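 further: 0% = median of test compound wells and 100% = reference inhibitor wells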
Among all 640,000 compounds or so, about 9,300 (1.5%) were called active. Cut-off read from the data, not from the text of the source: active = inhibition above about 32%; inactive = the rest. The sample as a whole holds a higher share of actives than the screen did.
Bench note: report the call from 1 for active, -1 for inactive

>>> discrete_label("O=C(Nc1cccc(O)c1)c1ccc(-c2ccccc2)cc1")
1
>>> discrete_label("Cc1occc1C(=O)Nc1ccc(NC(=O)c2ccoc2C)cc1")
-1

What was the test verdict on O=C(Nc1cccc(O)c1)c1cccnc1 ? -1

// return assay outcome for CC(=O)c1ccc(N2Cc3ccccc3C2)cc1 1

I'd appreciate the recorded outcome for CCOC(=O)C1=C(Cl)c2ccccc2NC1Cl (configuration not stated) from this test. -1

Hi, sorry to bother you, what did the test record for O=C(N/N=C/c1ccc(O)cc1)c1ccc(N2Cc3ccccc3C2)cc1 ? -1

Any idea what this test logged for CC1=C/C(=N\S(=O)(=O)c2ccccc2)C=C(Br)C1=O ? -1

Fill in: this test's call for OC1CCN(c2ccnc3c(-c4cccc(C(F)(F)F)c4)cnn23)CC1 is ___ -1

Assay outcome for C#Cc1cccc(NC(=O)c2ccc(-c3ccccc3)cc2)c1 : what was it? -1
